Tested on: P388
METHOD: Cytotoxicity against mouse P388 cells after 48 hrs by MTT assay
Assay type: functional, cell-based
MEASUREMENT CONTEXT: P388, 48 h
pIC50: −log10 of the molar value.
READOUT KIND: pIC50

Sample records with pIC50:
- SMILES INPUT: "CC(C)C[C@@H](C(=O)Nc1ccc(S(N)(=O)=O)cc1)N1C(=O)c2cccc3c(NCCSc4ccccc4)ccc(c23)C1=O"
  EXPERIMENTAL VALUE: "< 4.30"
- SMILES INPUT: "COc1cc(-c2ccc(NC(=O)[C@H](CC(C)C)N3C(=O)c4cccc5c(NCCSc6ccccc6)ccc(c45)C3=O)c(OC)c2)ccc1N"
  EXPERIMENTAL VALUE: "< 4.30"

Exercise: Quick check: pIC50 of `CC(C)C[C@@H](C(=O)Nc1ccc(S(=O)(=O)c2ccc(N)cc2)cc1)N1C(=O)c2cccc3c(NCCSc4ccccc4)ccc(c23)C1=O` ?
Key: < 4.30
